Target: T1, BoNT/F 202F (Clostridium botulinum, UniProt P30996 1-1274)
T1 sequence: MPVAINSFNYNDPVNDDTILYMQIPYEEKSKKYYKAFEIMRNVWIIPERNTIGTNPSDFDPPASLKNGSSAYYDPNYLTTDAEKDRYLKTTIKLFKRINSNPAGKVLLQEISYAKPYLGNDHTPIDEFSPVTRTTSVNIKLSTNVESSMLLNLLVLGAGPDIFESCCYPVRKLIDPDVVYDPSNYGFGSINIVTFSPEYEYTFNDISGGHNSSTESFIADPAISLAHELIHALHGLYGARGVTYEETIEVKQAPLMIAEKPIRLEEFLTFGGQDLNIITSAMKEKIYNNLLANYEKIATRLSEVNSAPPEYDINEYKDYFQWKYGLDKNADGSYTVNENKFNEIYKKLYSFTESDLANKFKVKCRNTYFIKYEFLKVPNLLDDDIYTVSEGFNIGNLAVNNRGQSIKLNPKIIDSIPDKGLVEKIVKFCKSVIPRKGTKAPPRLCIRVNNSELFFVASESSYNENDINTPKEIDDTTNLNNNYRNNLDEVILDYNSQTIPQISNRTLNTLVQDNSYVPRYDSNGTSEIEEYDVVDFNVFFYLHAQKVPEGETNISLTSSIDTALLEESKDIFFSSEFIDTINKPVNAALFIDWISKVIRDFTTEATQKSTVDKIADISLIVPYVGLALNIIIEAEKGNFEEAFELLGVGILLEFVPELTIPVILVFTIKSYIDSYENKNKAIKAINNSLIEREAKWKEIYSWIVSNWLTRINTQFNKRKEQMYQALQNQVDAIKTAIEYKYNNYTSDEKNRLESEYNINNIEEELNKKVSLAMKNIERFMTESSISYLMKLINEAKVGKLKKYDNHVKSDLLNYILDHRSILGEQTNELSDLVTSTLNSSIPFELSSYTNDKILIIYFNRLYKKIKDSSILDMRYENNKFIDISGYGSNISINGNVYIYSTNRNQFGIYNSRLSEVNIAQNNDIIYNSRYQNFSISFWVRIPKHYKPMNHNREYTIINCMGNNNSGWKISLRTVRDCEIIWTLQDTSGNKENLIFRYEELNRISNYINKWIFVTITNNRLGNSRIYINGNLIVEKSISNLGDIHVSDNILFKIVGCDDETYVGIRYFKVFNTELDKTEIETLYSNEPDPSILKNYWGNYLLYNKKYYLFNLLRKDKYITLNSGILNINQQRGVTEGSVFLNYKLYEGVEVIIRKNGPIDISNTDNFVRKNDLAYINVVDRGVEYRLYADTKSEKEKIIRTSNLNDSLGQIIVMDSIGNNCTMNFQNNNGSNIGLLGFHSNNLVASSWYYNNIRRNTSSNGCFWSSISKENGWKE
Test: yeast scFv FACS
MEASURED_METRIC: binding result

{"columns": ["BINDER", "MEASURED_METRIC", "TEST_VALUE"],
 "data": [
  ["43D3 scFv (scFv, V domains shown) VH: EVQQVQSGGNLVQPGGSLRLSCAATGPIGSHWMTWVRQAPGQGLEWVANINLDGTEKFYVDSVKGRFTVSRDNRKSSVFLQMNNLRVDDTAVYYCARLQWGGYNGWLSPWGQGTLVTVSS VL: DIVMTQSPPSLSASVGDRVSLTCRASEYIGTSLNWYQQKPGKAPKLLIYAASALHSGVPSRFSGSGSGTDFTLTISGLQPEDFATYYCQQANDLPLTFGGGTKLENK", "binding result", "binds"],
  ["42G8 scFv (scFv, V domains shown) VH: EVQLVPSGGNLVQPGGSLRLSCAATGPIGSHWMTWVRQAPGQGLEWVANINLDGTEKFYVDSVKGRFTVSRDNRKSSVFLQMNNLRVDDTAVYYCARLQWGGYNGWLSPWGQGTLVTVSS VL: DIVMTQSPPSLSASVGDRVSLTCRASEYIGTSLNWYQQKPGKAPKLLIYAASALHSGVPSRFSGSGSGTDFTLTISGLQPEDFATYYCQQTNDLPLTFGGGTKLEIK", "binding result", "binds"],
  ["41F7 scFv (scFv, V domains shown) VH: EVQLVPSGGNLVQPGGSLRLSCAATGPIGSHWMTWVRQAPGQGLEWVANINLDGTEKFYVDSVKGRFTVSRDNRKSSVFLQMNNLRVDDTAVYYCARLQWGGYNGWLSPWGQGTLVTVSS VL: DILMTQSPPSLSASVGDRVSLTCRASEYIGTSLNWYQQKPGKAPKLLIYAASALHSGVPSRFSGSGSGTDFTLTISGLQPEDFATYYCQQANDLPLTFGGGTKLEIK", "binding result", "binds"]
]}
